System: Avena fatua (AVEFA)
Experiment: Post-emergence activity, glasshouse pot test (100=total damage to plant; 0=no damage to plant)
Type: in vivo
Details: 336 h, rate 500 g/ha, evaluated 14 or 15 days after spraying
Procedure: Monocotyledonous and dicotyledonous test plants were sown in standard soil in pots. […] The test plants were then grown in a greenhouse under optimum conditions until, 14 or 15 days later for post-emergence and 19, 20 or 21 days for pre-emergence, the test was evaluated (100=total damage to plant; 0=no damage to plant). […]
Each record is given class 1 if its reported pest or weed control at 500 g/ha is strictly below 90%. Records at or above 90% are given class 0.

molecule | categoryLabel
Cc1cc(C)c(C2=C(O)CC(C3CCCSC3)CC2=O)c(C)c1 (stereo not shown) | class 1
CCc1cc(C)cc(CC)c1C1=C(O)CC(C2CCOCC2)CC1=O (stereo not shown) | class 0
CCc1cc(C)cc(CC)c1C1=C(O)CC(C2CCSCC2)CC1=O (stereo not shown) | class 0
CCc1cc(C)cc(C)c1C1=C(O)CC(C2CCCSC2)CC1=O (stereo not shown) | class 1
Cc1cc(C)c(C2=C(O)CC(C3CCS(=O)(=O)CC3)CC2=O)c(C)c1 (stereo not shown) | class 1

Incoming: Quick check: does CCc1cc(C)cc(CC)c1C1=C(O)CC(C2CCCSC2)CC1=O (stereo not shown) have pest or weed control at 500 g/ha under 90%?
Outgoing: class 0

Incoming: Could you please tell me whether pest or weed control at 500 g/ha recorded for CCc1cc(C)cc(CC)c1C1=C(O)CC(C2CCOC2)CC1=O (stereo not shown) is less than 90%?
Outgoing: class 0

---

Tested on: Setaria faberi (SETFA)
Experiment: Pre-emergence activity, glasshouse pot test (100=total damage to plant; 0=no damage to plant)
Format: in vivo
Conditions: rate 500 g/ha, evaluated 19, 20 or 21 days after spraying
quantityKind: pest or weed control at 500 g/ha

Use these answered entries as a reference point.
compound | pest or weed control at 500 g/ha
Cc1cc(C)c(C2=C(O)CC(C3CCCSC3)CC2=O)c(C)c1 (centres unmarked) [Compound T14] | 90%
CCc1cc(C)cc(CC)c1C1=C(O)CC(C2CCSCC2)CC1=O (centres unmarked) [Compound T18] | 100%
CCc1cc(C)cc(CC)c1C1=C(OC(=O)C(C)(C)C)CC(C2CCS(=O)(=O)CC2)CC1=O (centres unmarked) [Compound P3] | 90%
CCc1cc(C)cc(CC)c1C1=C(O)CC(C2CCOC2)CC1=O (centres unmarked) [Compound T4] | 100%
CCc1cc(C)cc(CC)c1C1=C(O)CC(C2CCC[S+]([O-])C2)CC1=O (centres unmarked) [Compound T23] | 70%

Incoming: Using Setaria faberi (SETFA) as the test system, report measured pest or weed control at 500 g/ha of Cc1cc(C)c(C2=C(O)CC(C3CCOC3)CC2=O)c(C)c1 (centres unmarked) [Compound T10] .
Outgoing: 70%

Incoming: Give pest or weed control at 500 g/ha; test system Setaria faberi (SETFA); compound CCc1ccc(-c2ccc(Cl)cc2)cc1C1=C(O)CC(C2CCOCC2)CC1=O (centres unmarked) [Compound T8]
Outgoing: 100%

Incoming: Lab note: Setaria faberi (SETFA) assay, enter pest or weed control at 500 g/ha for CCc1ccc(-c2ccc(Cl)cc2)cc1C1=C(O)CC(C2CCOC2)CC1=O (centres unmarked) [Compound T6] here
Outgoing: 100%

Incoming: # return pest or weed control at 500 g/ha of CCc1cc(C)cc(C)c1C1=C(O)CC(C2CCOC2)CC1=O (centres unmarked) [Compound T11] (system: Setaria faberi (SETFA))
Outgoing: 100%

Incoming: Give pest or weed control at 500 g/ha; test system Setaria faberi (SETFA); compound Cc1cc(C)c(C2=C(O)CC(C3CCSCC3)CC2=O)c(C)c1 (centres unmarked) [Compound T15]
Outgoing: 90%

Incoming: Enter recorded pest or weed control at 500 g/ha with Setaria faberi (SETFA) for CCc1cc(C)cc(C)c1C1=C(O)CC(C2CCOCC2)CC1=O (centres unmarked) [Compound T12] here.
Outgoing: 100%
